Below, each of the compounds is paired with its reported pEC50 value.
system: HIV (HTLV-IIIB strain); assay: HIV replication inhibition assay (Test Example 1; MT-4 cells, MTT); type: cell-based; conditions: HIV (HTLV-IIIB strain), MT-4 cells, MTT, four days; read-out: EC50
Units for pEC50: none; it is -log10 of a concentration expressed in mol/L.

Below, each entry is followed by its recorded pEC50 result.
| compound | system | observed-result |
| --- | --- | --- |
| Cc1ccc(-c2c([C@H](OC(C)(C)C)C(=O)O)c(C)c3c4c2cc(C)n4CCN3c2ncc(CN(C)C)cn2)cc1 [Compound I-304] | HIV (HTLV-IIIB strain) | 8.39 |
| Cc1ccc(-c2c(C(OC(C)(C)C)C(=O)O)c(C)c3c4c2cc(C)n4CCN3CCN(C)C)cc1 (stereo not drawn) [Compound I-027] | HIV (HTLV-IIIB strain) | 8.00 |

Let's switch to this compound now.
// lookup pEC50 | system=HIV (HTLV-IIIB strain) | key= Cc1c([C@H](OC(C)(C)C)C(=O)O)c(-c2ccc(Cl)cc2)c2cc(C)n3c2c1N(S(C)(=O)=O)CC3 [Compound I-019]
8.92

----------
Below, each of the molecules is paired with its reported Potency shift value value.
system: HIV; assay type: cell-based; conditions: EC50 in the presence of human serum (25%) versus without human serum, MT-4 cells

| molecule | Potency shift value |
| --- | --- |
| Cc1ccc(-c2c([C@H](OC(C)(C)C)C(=O)O)c(C)c3c4c2cc(COCc2ccccc2)n4CCN3C)cc1 | 7.8 |

Which value of Potency shift value has been reported for "COc1cnc(N2CCn3c(C)cc4c(-c5ccccc5)c([C@H](OC(C)(C)C)C(=O)O)c(C)c2c43)nc1" in the records?
22

----------
test system: HIV (HTLV-IIIB strain); experiment: HIV replication inhibition assay (Test Example 1; MT-4 cells, MTT); format: cell-based; details: Human immunodeficiency virus 1, IIIB, MT4, 96 h
experimental-endpoint: EC50
Report field: quantity (unit follows the number).

// lookup EC50 | system=HIV (HTLV-IIIB strain) | key= "Cc1c([C@H](OC(C)(C)C)C(=O)O)c(-c2ccc(Cl)cc2)c2cc(C)n3c2c1N(S(=O)(=O)CC[Si](C)(C)C)CC3"
8.6 nM

----------
tested on: HIV; type: cell-based; conditions: EC50 in the presence of human serum (25%) versus without human serum, MT-4 cells
experimental-endpoint: Potency shift value
Lab note: record the figure alone, no unit after it.

| compound | observed-result |
| --- | --- |
| Cc1c([C@H](OC(C)(C)C)C(=O)O)c(C2=CCC(C)(C)CC2)c2cc(C)n3c2c1N(CCN(C)C)CC3 [Compound I-320] | 2.6 |
| Cc1ccc(-c2c(C(OC(C)(C)C)C(=O)O)c(C#N)c3c4c2cc(C)n4CCN3C)cc1 (stereo not shown) [Compound I-186] | 15 |
| Cc1ccc(-c2c([C@H](OC(C)(C)C)C(=O)O)c(C)c3c4c2cc(C)n4CCN3c2ncc(OCC3COC3)cn2)cc1 [Compound I-268] | 19 |
| COc1cnc(N2CCn3c(C)cc4c(-c5ccc(Cl)cc5)c([C@H](OC(C)(C)C)C(=O)O)c(C)c2c43)nc1 [Compound I-156] | 12 |
| Cc1ccc(-c2c([C@H](OC(C)(C)C)C(=O)O)c(C)c3c4c2cc(C)n4CCN3c2nc3ccccc3n2C)cc1 [Compound I-251] | 9.6 |

Which value of Potency shift value has been reported for Cc1c([C@H](OC(C)(C)C)C(=O)O)c(-c2ccc(Cl)cc2)c2cc(C)n3c2c1N(C)C1COCC13 (stereo partly shown) [Compound I-138] in the records?
5.8

Which value of Potency shift value has been reported for Cc1c([C@H](OC(C)(C)C)C(=O)O)c(-c2ccc(Cl)cc2)c2cc(C)n3c2c1N(c1ncc(OCC2(F)COC2)cn1)CC3 [Compound I-259] in the records?
15

----------
test system: HIV; assay type: cell-based; conditions: EC50 in the presence of human serum (25%) versus without human serum, MT-4 cells
Kindly apply the following: rule met if Potency shift value is less than 9, rule not met in every other case.

// below: answered molecules
| molecule | classification |
| --- | --- |
| Cc1c([C@H](OC(C)(C)C)C(=O)O)c(-c2ccc(Cl)cc2)c2cc(C)n3c2c1N(C(=O)Nc1ccccc1Br)CC3 | rule met |
| CCCO[C@H](C(=O)O)c1c(C)c2c3c(cc(C)n3CCN2c2ncc(OC)cn2)c1-c1ccc(Cl)cc1 | rule met |

Does this molecule meet the criterion Potency shift value < 9? "Cc1ccc(-c2c([C@H](OC(C)(C)C)C(=O)O)c(C)c3c4c2cc(C(F)(F)F)n4CCN3C)cc1"
rule not met

Does this molecule meet the criterion Potency shift value < 9? "Cc1ccc(-c2c([C@H](OC(C)(C)C)C(=O)O)c(C)c3c4c2cc(C)n4CCN3C)cc1"
rule not met

Does this molecule meet the criterion Potency shift value < 9? "Cc1ccc(-c2c([C@H](OC(C)(C)C)C(=O)O)c(C)c3c4c2cc(C)n4CCN3c2ncc(CN3CCCCC3)cn2)cc1"
rule not met

Does this molecule meet the criterion Potency shift value < 9? "Cc1ccc(-c2c([C@H](OC(C)(C)C)C(=O)O)c(C)c3c4c2cc(C)n4CCN3c2ncc(OCCN(C)C)cn2)cc1"
rule met

----------
Below, each of the molecules is paired with its reported EC90 value.
test system: HIV (HTLV-IIIB strain); assay: HIV replication inhibition assay (Test Example 1; MT-4 cells, MTT); format: cell-based; conditions: Human immunodeficiency virus 1, MT4, 96 h; HIV (HTLV-IIIB strain), MT-4 cells, MTT, four days; read-out: EC90
Report field: quantity (unit follows the number).

| molecule | observed-result |
| --- | --- |
| Cc1c([C@H](OC(C)(C)C)C(=O)O)c(-c2ccc(Cl)cc2)c2cc(C)n3c2c1N(C)CC3 | 1.1 nM |

Which value of EC90 has been reported for "Cc1c([C@H](OC(C)(C)C)C(=O)O)c(-c2ccc(Cl)cc2)c2cc(C)n3c2c1N(c1ncc(OCCCN(C)C)cn1)CC3" in the records?
8.1 nM

Which value of EC90 has been reported for "COCc1cc2c(-c3ccc(C)cc3)c([C@H](OC(C)(C)C)C(=O)O)c(C)c3c2n1CCN3C" in the records?
24 nM

Which value of EC90 has been reported for "Cc1ccc(-c2c([C@H](OC(C)(C)C)C(=O)O)c(C)c3c4c2cc(C)n4CCN3c2ncc(OCC3COC3)cn2)cc1" in the records?
2.1 nM

----------
system: HIV; format: cell-based; conditions: EC50 in the presence of human serum (25%) versus without human serum, MT-4 cells
Kindly apply the following: t if Potency shift value is less than 10, f in every other case.

Does this molecule meet the criterion Potency shift value < 10? "COc1cnc(N2CCn3c(C)cc4c(-c5ccc(Cl)cc5)c([C@H](OCC5CC5)C(=O)O)c(C)c2c43)nc1"
f

Does this molecule meet the criterion Potency shift value < 10? "Cc1ccc(-c2c([C@H](OC(C)(C)C)C(=O)O)c(C)c3c4c2cc(C(F)F)n4CCN3C)cc1"
f

Does this molecule meet the criterion Potency shift value < 10? Cc1c([C@H](OC(C)(C)C)C(=O)O)c(-c2ccc(Cl)cc2)c2cc(C)n3c2c1OC(C)C3 (some centres unmarked) [Compound I-195]
f

Does this molecule meet the criterion Potency shift value < 10? "Cc1ccc(-c2c([C@H](OC(C)(C)C)C(=O)O)c(C)c3c4c2cc(C)n4CCN3c2nc(C)ns2)cc1"
f

Does this molecule meet the criterion Potency shift value < 10? "Cc1c(-c2c([C@H](OC(C)(C)C)C(=O)O)c(C)c3c4c2cc(C)n4CCN3CCN(C)C)cc(F)c2c1CCCO2"
t

Does this molecule meet the criterion Potency shift value < 10? "COCCOc1cnc(N2CCn3c(C)cc4c(-c5ccc(Cl)cc5)c([C@H](OC(C)(C)C)C(=O)O)c(C)c2c43)nc1"
f

Does this molecule meet the criterion Potency shift value < 10? "Cc1ccc(-c2c([C@H](OC(C)(C)C)C(=O)O)c(C)c3c4c2cc(C)n4CCN3c2ncc(CCN(C)C)cn2)cc1"
t

Does this molecule meet the criterion Potency shift value < 10? "Cc1c([C@H](OC(C)(C)C)C(=O)O)c(-c2ccc(Cl)cc2)c2cc(C)n3c2c1N(c1ncc(F)cn1)CC3"
f

Does this molecule meet the criterion Potency shift value < 10? "Cc1c([C@H](OC(C)(C)C)C(=O)O)c(-c2ccc(Cl)cc2)c2cc(C)n3c2c1N(c1ncc(CN(C)C)cn1)CC3"
t

Does this molecule meet the criterion Potency shift value < 10? "CNCCOc1cnc(N2CCn3c(C)cc4c(-c5ccc(C)cc5)c([C@H](OC(C)(C)C)C(=O)O)c(C)c2c43)nc1"
t

Does this molecule meet the criterion Potency shift value < 10? "COc1cnc(N2CCn3c(C)cc4c(-c5ccc(Cl)cc5)c([C@H](OCCO)C(=O)O)c(C)c2c43)nc1"
t

Does this molecule meet the criterion Potency shift value < 10? "Cc1ccc(-c2c([C@H](OC(C)(C)C)C(=O)O)c(C)c3c4c2cc(C)n4CCN3c2ncc(OCCN(C)S(C)(=O)=O)cn2)cc1"
t

Does this molecule meet the criterion Potency shift value < 10? "CCS(=O)(=O)N1CCn2c(C)cc3c(-c4ccc(Cl)cc4)c([C@H](OC(C)(C)C)C(=O)O)c(C)c1c32"
f

Does this molecule meet the criterion Potency shift value < 10? "CCN1CCn2c(C)cc3c(-c4ccc(C)cc4)c([C@H](OC(C)(C)C)C(=O)O)c(C)c1c32"
f

Does this molecule meet the criterion Potency shift value < 10? "Cc1c([C@H](OC(C)(C)C)C(=O)O)c(-c2ccc(Cl)cc2)c2cc(C)n3c2c1N(C)CC3"
f

Does this molecule meet the criterion Potency shift value < 10? "COc1cccc(N2CCn3c(C)cc4c(-c5ccc(Cl)cc5)c([C@H](OC(C)(C)C)C(=O)O)c(C)c2c43)n1"
f

Does this molecule meet the criterion Potency shift value < 10? "Cc1ccc(-c2c([C@H](OC(C)(C)C)C(=O)O)c(C)c3c4c2cc(C)n4CCN3c2ncc(CN3CCN(C)CC3)cn2)cc1"
t

Does this molecule meet the criterion Potency shift value < 10? "COc1ccc(N2CCn3c(C)cc4c(-c5ccc(C)cc5)c([C@H](OC(C)(C)C)C(=O)O)c(C)c2c43)nn1"
t

Does this molecule meet the criterion Potency shift value < 10? "Cc1ccc(-c2c([C@H](OC(C)(C)C)C(=O)O)c(C)c3c4c2cc(C)n4CCN3c2ncc(CN3CCOCC3)cn2)cc1"
f

Does this molecule meet the criterion Potency shift value < 10? "COCc1cc2c(-c3ccc(C)cc3)c([C@H](OC(C)(C)C)C(=O)O)c(C)c3c2n1CCN3C"
f

Does this molecule meet the criterion Potency shift value < 10? "Cc1ccc(-c2c([C@H](OC(C)(C)C)C(=O)O)c(C)c3c4c2cc(C)n4CCN3c2ccc(N3CCCC3=O)nn2)cc1"
f
